Measured protein stability index of individual entries
protocol.description: protein stability index of a GFP-peptide fusion (yeast GPS) (PSI 1-4); higher = more stable; sorted into four equal gates, so the index is relative within each strain
condition.description: doa10∆
readout: protein stability index

monomer_sequence="KGLIKVNGSPITLVEPE [RPS16A]" result=3.09
monomer_sequence="QRETMKERKLRENIAML [SMC1]" result=3.42
monomer_sequence="PETGDHVVGRIAEVGNK [RRP4]" result=3.27
monomer_sequence="PTQTKGNDAKPAKVEDV [YLR335W/NUP2]" result=3.21

====

Listing of entries alongside the reported protein stability index.
protocol.description: protein stability index of a GFP-peptide fusion (yeast GPS) (PSI 1-4); higher = more stable; sorted into four equal gates, so the index is relative within each strain
condition.description: pdr5∆
readout: protein stability index

monomer_sequence="LESWWLVLGEVSKKELY [BRR2]" result=1.39
monomer_sequence="ALAQQKLLTPQDMEAAK [GAL11]" result=3.38
monomer_sequence="ANPAGASQPEPTTNEPA [YJL041W/NSP1]" result=3
monomer_sequence="SDEVSRGIPRLSEDELR [SMC4]" result=3.69
monomer_sequence="KQIDIPNFNVEIMQQKF [ECM29]" result=2.5
monomer_sequence="STKELKFSDIIQGISKM [BRN1]" result=3.33
monomer_sequence="RWYQLIATGCKDGRIRI [YGL100W/SEH1]" result=2.26
monomer_sequence="KKTRIIPRHLQLAIRND [HTA1]" result=2.69
monomer_sequence="SVDMSALKDPQTDADRV [RIP1]" result=3.68
monomer_sequence="ATADTTHLHEALDIVCS [NUT1]" result=2.55
monomer_sequence="LNVQVWHIEETGEWFSS [ITC1]" result=2.03
monomer_sequence="ELALLNHWRQNKGRAVY [BRR2]" result=1.21
monomer_sequence="KIAHGTTTLAFRFQGGI [PRE2]" result=3.11
monomer_sequence="KILEQFEYVLYPSKTLK [FAS2]" result=2.93
monomer_sequence="GPENALNVYHYFGENSS [YJL039C/NUP192]" result=2.05
monomer_sequence="EYYAKKRAFTKKVASAN [RPL16A]" result=1.7
monomer_sequence="ELSDKEIYTVEDRPPEY [ISW2]" result=3.45
monomer_sequence="LHEKYLTEGGSILEEKI [SMC1]" result=3.24
monomer_sequence="LLYLRLKNIYVSADDFV [PRP8]" result=1.39
monomer_sequence="SSYEEFLERFDFYTRHH [ITC1]" result=3.1
monomer_sequence="DNPDQGISDMCRLFFTE [YCS4]" result=3.63
